src = ChEMBL document CHEMBL1201862

System: SW-620
Assay info: NCI tumour cell line growth inhibition, 48 h
The source made the active and inactive calls. Rule as the data show it: active = GI50 up to about 1.1 µM and inactive = higher.
Outcome codes: 1.0 for active, 0.0 for inactive

{"Compound": "COc1nc(C(=O)NNC(=O)c2nc(OC)c3ccccc3c2-c2ccccc2)c(-c2ccccc2)c2ccccc12", "Category label": 0.0}
{"Compound": "COc1ccc(CC2(O)C3CC4CCC2C4C3)cc1 (stereo not given)", "Category label": 0.0}
{"Compound": "COc1cc(/C=C/C(=O)O)ccc1C(=O)OCc1ccccc1", "Category label": 0.0}
{"Compound": "COc1ccc(Br)c(CN2CCc3ccccc32)c1OS(=O)(=O)c1ccc(C)cc1", "Category label": 0.0}
{"Compound": "COc1cc(C2SC(=N)Nc3c2c(C)nn3C(=O)c2ccccc2O)ccc1O (stereo not given)", "Category label": 0.0}
{"Compound": "COC(CC1(/C=C/O[Si](C(C)C)(C(C)C)C(C)C)C(=O)N(COCC[Si](C)(C)C)c2ccccc21)OC (stereo not given)", "Category label": 0.0}
{"Compound": "O=C1N/C(=N/N=C/C(O)C(O)C(O)C(O)CO)N/C1=C\\c1cccs1 (stereo not given)", "Category label": 0.0}
{"Compound": "O=C(OCC(Cl)(Cl)Cl)O[C@@H]1CCCC1(c1ccccc1)c1ccccc1", "Category label": 0.0}
{"Compound": "CCOC(=O)C(NC(=O)c1cccc(Cl)c1)(Nc1ccc(S(=O)(=O)Nc2cc(C)on2)cc1)C(F)(F)F (stereo not given)", "Category label": 0.0}
{"Compound": "CC1(c2ccc(Cl)cc2)C=C(c2ccc(Cl)cc2)C(C#N)=C(C(C#N)C#N)N1.CNC (stereo not given)", "Category label": 0.0}
{"Compound": "CCC1OC(=O)CC(O)C(C)C(OC2OC(C)C(O)C(N(C)C)C2O)C(CC=O)CC(C)C(=O)/C=C/C2(C)OC2C1C (stereo not given)", "Category label": 0.0}
{"Compound": "O=C(O)c1ccccc1NCn1c(=S)sc2ccccc21", "Category label": 0.0}
{"Compound": "CC(C)C1(O)C(=O)N(c2c(F)c(F)c(F)c(F)c2F)C(=S)N1CCSc1ccccc1 (stereo not given)", "Category label": 0.0}
{"Compound": "C=C(C)C(=O)O[C@H]1CC2=CC(CC(C)=C[C@H]3OC(=O)C(=C)C13)OC2=O (stereo not given in full)", "Category label": 0.0}
{"Compound": "COc1ccc(Nc2nc3ccccc3nc2C(=O)O)cc1", "Category label": 0.0}
{"Compound": "CC(NC(=O)C(OC(=O)C(C)NC(=O)OC(C)(C)C)C(C)C)C(=O)OC(C(=O)O)C(C)C (stereo not given)", "Category label": 0.0}
{"Compound": "CN(C)CCNC(=O)c1cccc2cc3cc(O)ccc3nc12", "Category label": 1.0}
{"Compound": "O=c1c2ccccc2nc(Cc2nc(-c3ccc(Cl)cc3)cs2)n1-c1ccc(Cl)cc1", "Category label": 0.0}
{"Compound": "COC(=O)C1=C(C)N(NC(N)=O)C(C)(O)C12CCOC2=O (stereo not given)", "Category label": 0.0}
{"Compound": "Cc1nc(OCc2ccccc2)c2ncn(CCO)c2n1", "Category label": 0.0}
{"Compound": "Cc1c(C(=O)/C=C/c2ccccc2)[n+]([O-])c2ccccc2[n+]1[O-]", "Category label": 0.0}
{"Compound": "CC1(C)CC(O)CC(C)(C)N1O [TEMPOL HYDROXYLAMINE]", "Category label": 0.0}
{"Compound": "FC(F)(F)c1ccc2c(c1)nc(Cc1ccc(Cl)c(Cl)c1)n2CC1CCCN2CCCCC12 (stereo not given)", "Category label": 0.0}
{"Compound": "Cc1cc(C)c(S(=O)(=O)N(CCCCCCN)OCCCN)c(C)c1", "Category label": 0.0}
{"Compound": "O=C1C2C(C(=O)N1c1ccccc1)C1([N+](=O)[O-])C=C3c4ccccc4N(C(=O)c4ccccc4)C32C2C(=O)N(c3ccccc3)C(=O)C21 (stereo not given)", "Category label": 0.0}
{"Compound": "N#C/C(=C/c1ccco1)C(=O)c1ccccc1", "Category label": 0.0}
{"Compound": "CNC(=S)NNc1ncnc2c1ncn2-c1ccc(C)cc1", "Category label": 0.0}
{"Compound": "O=C1NC(=O)C(c2c[nH]c3ccccc23)=C1c1cnc[nH]1", "Category label": 0.0}
{"Compound": "CC1(C)OC[C@@H]([C@H](O)C2C=CC(=O)S2)O1 (stereo not given in full)", "Category label": 0.0}
{"Compound": "O=C1/C(=C/c2ccc(Cl)cc2)N=C(c2ccccc2)N1c1nc2ccc(Sc3ccccc3)cc2[nH]1", "Category label": 0.0}
{"Compound": "CCN(CC)c1ccc2cc(-c3nnc(-c4ccccc4)o3)c(=O)oc2c1", "Category label": 0.0}
{"Compound": "O=C1NC2(CN3CCC2CC3)C(=O)N1CN(Cc1ccccc1)c1ccccc1 (stereo not given)", "Category label": 0.0}
{"Compound": "COC(=O)C1=C(O)c2cc3c(cc2[C@H](c2cc(OC)c(OC)c(OC)c2)C1C(=O)OC)OCO3 (stereo not given in full)", "Category label": 0.0}
{"Compound": "c1ccc2c(c1)nc1n2CSC1", "Category label": 0.0}
{"Compound": "C/C(=N\\NC(=O)N/N=C(\\C)c1ccccn1)c1ccccn1", "Category label": 1.0}
{"Compound": "COc1ccc(-c2nc(-c3cnccn3)n(Cc3ccccc3)n2)cc1", "Category label": 0.0}
{"Compound": "O=C(Nc1ccccc1)O/N=C1/CCCC/C1=C\\c1ccccc1", "Category label": 0.0}
{"Compound": "Cc1nc(C)c(C(=O)NNC(=O)Cc2ccccc2)cc1C(=O)NNC(=O)Cc1ccccc1", "Category label": 0.0}
{"Compound": "CSc1ncc2c(n1)-c1ccccc1OC2", "Category label": 0.0}
{"Compound": "Cc1ccc(S(=O)(=O)N/N=C(/c2nc3ccc([N+](=O)[O-])cc3nc2O)C(O)c2ccc(C(O)/C(=N\\NS(=O)(=O)c3ccc(C)cc3)c3nc4ccc([N+](=O)[O-])cc4nc3O)cc2)cc1 (stereo not given)", "Category label": 0.0}

----------
Test system: SK-OV-3
Assay info: NCI tumour cell line growth inhibition, 48 h
Active and inactive are the calls of the source. Cut-off read from the data, not from the text of the source: active = GI50 up to about 1.1 µM and inactive = higher. Residues, ends and D or L forms follow the SMILES beside them. *: point of attachment. Boc = CC(C)(C)OC(=O)*
Outcome codes: active, inactive

{"Compound": "CC1(C)C(C#N)C1C1=C(N2CCOCC2)[C@]2(C)C(OC(=O)c3ccccc3)CC[C@@H]2C1 (stereo partly drawn)", "Category label": "inactive"}
{"Compound": "COc1cc2c(c(OC)c1OC)-c1ccc(OC)c(=O)cc1C(NC(=O)COc1ccccc1)CC2 (stereo not drawn)", "Category label": "active"}
{"Compound": "O=C1/C(=C/c2ccc(Cl)cc2)NC(=S)N1CN1CCOCC1", "Category label": "inactive"}
{"Compound": "O=[N+]([O-])c1ccc(NS(=O)(=O)C(F)(F)F)cc1", "Category label": "inactive"}
{"Compound": "CN/N=C(/CC(=O)c1sc(-n2nc(-c3ccccc3)cc2-c2ccccc2)nc1C)C(=O)Nc1ccc(Cl)c(Cl)c1", "Category label": "inactive"}
{"Compound": "CC(=O)NC1C(OCc2ccccc2)OC(COC(=O)CCCCCCCCCCNC(=O)CCNc2ccc([N+](=O)[O-])c3[nH]c4ccc(O)cc4c(=O)c23)C(O)C1OC(C)C(=O)N[C@H](C(=O)N[C@H](CCC(=O)O)C(N)=O)C(C)C (stereo partly drawn)", "Category label": "inactive"}
{"Compound": "S=c1c2nc[nH]c2ncn1CCSC1=NC=NC2=NC=NC21 (stereo not drawn)", "Category label": "inactive"}
{"Compound": "CC1=C(CC2C(=O)N(c3ccccc3)S(=O)(=O)NC2C)C(=O)N(c2ccccc2)S(=O)(=O)N1C (stereo not drawn)", "Category label": "inactive"}
{"Compound": "CC1(O)CC2C(CC1SC1CC3C(CC1(C)O)C3(C)C)C2(C)C (stereo not drawn)", "Category label": "inactive"}
{"Compound": "CC(=O)c1c2c(cc3c1CC1(Cc4cc5c(cc4C1=O)CCC5)C3)CCC2 (stereo not drawn)", "Category label": "inactive"}
{"Compound": "O=C1N/C(=N/N=C/C(O)C(O)C(O)C(O)CO)N/C1=C\\c1cccs1 (stereo not drawn)", "Category label": "inactive"}
{"Compound": "COc1ccc2c(c1)[n+]([O-])c(-c1cccc(Cl)c1)c(N)[n+]2[O-]", "Category label": "inactive"}
{"Compound": "O=C1c2cc(Cl)ccc2-n2c(noc2=O)C2CSCN12 (stereo not drawn)", "Category label": "inactive"}
{"Compound": "CCOC(=O)C(NC(=O)c1cccc(Cl)c1)(Nc1ccc(S(=O)(=O)Nc2cc(C)on2)cc1)C(F)(F)F (stereo not drawn)", "Category label": "inactive"}
{"Compound": "C\\C=C/C=C/C=C/C(=O)O", "Category label": "inactive"}
{"Compound": "Cc1c(NC(=O)Nc2c(Cl)cccc2Cl)c(=O)n(-c2ccccc2)n1C", "Category label": "inactive"}
{"Compound": "CC1=CCCC2C(C=O)(C1)CC(C)C2(CO)CC/C(=C/CO)CO (stereo not drawn)", "Category label": "inactive"}
{"Compound": "CC(NC(=O)C(NC(=O)OC(C)(C)C)C(C)C)C(=O)N1CCCC1C(=O)NCC(=O)NC(C(=O)NCC(=O)O)C(C)C (stereo not drawn) (Boc-VAPGVG-OH; configuration not given here)", "Category label": "inactive"}
